# Papp B→A at 10 µM per entry
assay_info: Permeability across basolateral to apical side in MDCK cells at 10 uM by LC-MS/MS analysis
Format: ADME, cell-based, Canis lupus familiaris
conditions_used: dog, read-out: permeability

{"columns": ["molecule", "Papp B→A at 10 µM, ×10⁻⁶ cm/s"],
 "data": [
  ["C#Cc1n[nH]c2c(-c3cn(C(C)c4ccccn4)c(=O)[nH]c3=O)cc(F)cc12 (centres undefined)", 37.9],
  ["C[C@@H](c1ccc(F)cc1)n1cc(-c2cc(F)cc3cn[nH]c23)c(=O)[nH]c1=O", 22.4],
  ["C[C@@H](c1ccc(F)cc1)n1cc(-c2cc(F)cc3c(C#N)n[nH]c23)c(=O)[nH]c1=O", 25.6],
  ["C#Cc1n[nH]c2c(-c3cn(C(C)c4ccccc4)c(=O)[nH]c3=O)cc(F)cc12 (centres undefined)", 14.2]
]}

====

pKd: −log10 of the molar value.
Consider compounds characterized by their pKd with Hepatocyte growth factor receptor (Homo sapiens, UniProt P08581).
Sequence (P08581 whole entry): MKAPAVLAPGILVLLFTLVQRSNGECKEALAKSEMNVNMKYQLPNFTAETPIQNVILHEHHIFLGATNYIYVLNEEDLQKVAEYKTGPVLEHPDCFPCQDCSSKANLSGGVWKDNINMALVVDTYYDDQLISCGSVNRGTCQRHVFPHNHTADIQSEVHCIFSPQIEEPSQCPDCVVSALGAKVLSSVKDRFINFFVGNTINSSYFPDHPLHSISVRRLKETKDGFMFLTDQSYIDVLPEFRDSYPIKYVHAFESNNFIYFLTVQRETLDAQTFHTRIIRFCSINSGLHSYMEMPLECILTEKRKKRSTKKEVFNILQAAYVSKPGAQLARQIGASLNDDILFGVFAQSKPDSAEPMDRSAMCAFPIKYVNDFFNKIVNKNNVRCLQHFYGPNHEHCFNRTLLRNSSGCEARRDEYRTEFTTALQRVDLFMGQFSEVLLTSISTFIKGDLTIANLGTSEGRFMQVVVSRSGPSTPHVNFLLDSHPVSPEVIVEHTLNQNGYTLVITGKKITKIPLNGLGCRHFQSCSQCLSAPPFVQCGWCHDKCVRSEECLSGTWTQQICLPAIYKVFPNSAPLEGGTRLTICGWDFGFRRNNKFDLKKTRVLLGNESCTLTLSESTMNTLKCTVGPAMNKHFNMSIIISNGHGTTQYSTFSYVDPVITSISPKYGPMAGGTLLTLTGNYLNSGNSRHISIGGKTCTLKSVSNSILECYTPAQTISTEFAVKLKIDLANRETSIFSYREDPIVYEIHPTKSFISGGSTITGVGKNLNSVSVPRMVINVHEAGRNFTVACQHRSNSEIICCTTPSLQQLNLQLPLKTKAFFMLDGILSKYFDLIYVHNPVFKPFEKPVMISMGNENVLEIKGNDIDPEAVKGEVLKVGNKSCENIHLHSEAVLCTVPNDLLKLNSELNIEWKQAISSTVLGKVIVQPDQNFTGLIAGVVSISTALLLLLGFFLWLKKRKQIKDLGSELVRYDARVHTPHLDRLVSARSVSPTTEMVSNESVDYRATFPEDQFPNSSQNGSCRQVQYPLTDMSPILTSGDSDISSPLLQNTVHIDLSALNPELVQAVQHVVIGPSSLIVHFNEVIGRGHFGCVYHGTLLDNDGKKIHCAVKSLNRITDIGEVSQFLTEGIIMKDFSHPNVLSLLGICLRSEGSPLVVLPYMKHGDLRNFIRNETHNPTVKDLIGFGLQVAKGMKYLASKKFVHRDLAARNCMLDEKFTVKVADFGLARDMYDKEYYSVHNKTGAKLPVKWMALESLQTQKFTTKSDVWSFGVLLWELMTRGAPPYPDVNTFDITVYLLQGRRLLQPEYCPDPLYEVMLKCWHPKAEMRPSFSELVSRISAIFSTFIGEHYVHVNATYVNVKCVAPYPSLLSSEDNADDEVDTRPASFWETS

{"columns": ["compound", "pKd"],
 "data": [
  ["CC(c1ccccc1)n1cc(-c2ccc3[nH]ccc3c2)c(=O)[nH]c1=O (stereo unspecified)", 6.28],
  ["CC(c1ccccc1)n1cc(-c2cc(F)cc3c(C#N)n[nH]c23)c(=O)[nH]c1=O (stereo unspecified)", 7.06],
  ["CC(c1ccccc1)n1cc(-c2c(F)ccc3cn[nH]c23)c(=O)[nH]c1=O (stereo unspecified)", 6.36],
  ["CC(c1ccccc1)n1cc(-c2ccccn2)c(=O)[nH]c1=O (stereo unspecified)", 5.35],
  ["CC(c1ccccc1)n1cc(-c2ncccn2)c(=O)[nH]c1=O (stereo unspecified)", 5.57],
  ["CC(c1cccc(-c2c[nH]cn2)c1)n1cc(-c2cc(F)cc(F)c2)c(=O)[nH]c1=O (stereo unspecified)", 6.28],
  ["CC(c1cccc(-c2c[nH]cn2)c1)n1cc(-c2cccc3cn[nH]c23)c(=O)[nH]c1=O (stereo unspecified)", 6.34],
  ["CC(c1ccc(F)cc1)n1cc(-c2cc(F)cc(F)c2)c(=O)[nH]c1=O (stereo unspecified)", 5.92],
  ["CC(c1ccccc1)n1cc(-c2cccc3cn[nH]c23)c(=O)[nH]c1=O (stereo unspecified)", 6.62],
  ["CC(c1ccccc1)n1cc(-c2cccc3c(F)n[nH]c23)c(=O)[nH]c1=O (stereo unspecified)", 6.62],
  ["C[C@@H](c1ccccc1)n1cc(-c2cc(F)cc(F)c2)c(=O)[nH]c1=O", 6.04]
]}

====

test_system: Hepatocyte growth factor receptor (Homo sapiens)
The label is yes for IC50 below 400 nM and no for IC50 equal to or exceeding 400 nM.

{"columns": ["molecule", "assigned_class"],
 "data": [
  ["CC(c1ccccc1)n1cc(-c2cc(F)cc3c(C#N)n[nH]c23)c(=O)[nH]c1=O (stereo not drawn)", "yes"],
  ["C#Cc1n[nH]c2c(-c3cn(C(C)c4ccccc4)c(=O)[nH]c3=O)cccc12 (stereo not drawn)", "yes"],
  ["Cc1n[nH]c2c(-c3cn(C(C)c4ccccc4)c(=O)[nH]c3=O)cccc12 (stereo not drawn)", "no"],
  ["CC(c1ccccn1)n1cc(-c2cc(F)cc3c(C#N)n[nH]c23)c(=O)[nH]c1=O (stereo not drawn)", "no"],
  ["CC(c1ccccc1)n1cc(-c2cccc3cn[nH]c23)c(=O)[nH]c1=O (stereo not drawn)", "no"],
  ["CC(c1ccc(F)cc1)n1cc(-c2cc(F)cc3c(C#N)n[nH]c23)c(=O)[nH]c1=O (stereo not drawn)", "yes"],
  ["C#Cc1n[nH]c2c(-c3cn([C@@H](C)c4ccccn4)c(=O)[nH]c3=O)cc(F)cc12", "yes"]
]}

====

assay_info: Lipophilicity, logD of compound in octanol and water at pH 7.4 measured by shake-flask method
Assay type: physicochemical

{"columns": ["compound", "logD"],
 "data": [
  ["CC(c1ccccc1)n1cc(-c2c(F)ccc3cn[nH]c23)c(=O)[nH]c1=O (stereo not given)", 2.5],
  ["C#Cc1n[nH]c2c(-c3cn([C@@H](C)c4ccccc4)c(=O)[nH]c3=O)cc(F)cc12", 3.4],
  ["CC(c1ccccc1Cl)n1cc(-c2cc(F)cc(F)c2)c(=O)[nH]c1=O (stereo not given)", 3.6],
  ["CC(c1cccc(-c2cc[nH]n2)c1)n1cc(-c2cc(F)cc(F)c2)c(=O)[nH]c1=O (stereo not given)", 3.5],
  ["CC(c1cccc(-c2c[nH]cn2)c1)n1cc(-c2cc(F)cc(F)c2)c(=O)[nH]c1=O (stereo not given)", 3.2],
  ["CC(c1ccccc1)n1cc(-c2ncccn2)c(=O)[nH]c1=O (stereo not given)", 0.85],
  ["CC(c1ccccc1)n1cc(-c2cc(F)cc3c(C#N)n[nH]c23)c(=O)[nH]c1=O (stereo not given)", 3.1],
  ["C[C@@H](c1ccccc1)n1cc(-c2cc(F)cc(F)c2)c(=O)[nH]c1=O", 3.1],
  ["CC(c1ccccn1)n1cc(-c2cc(F)cc3c(C#N)n[nH]c23)c(=O)[nH]c1=O (stereo not given)", 2.1],
  ["O=c1[nH]c(=O)n(Cc2ccccc2)cc1-c1cc(F)cc(F)c1", 3],
  ["C[C@@H](c1ccc(F)cc1)n1cc(-c2cc(F)cc3cn[nH]c23)c(=O)[nH]c1=O", 2.8],
  ["CC(c1ccc(F)cc1)n1cc(-c2cc(F)cc3cn[nH]c23)c(=O)[nH]c1=O (stereo not given)", 2.7],
  ["CC(c1cccc(Cl)c1)n1cc(-c2cc(F)cc(F)c2)c(=O)[nH]c1=O (stereo not given)", 3.8],
  ["CC(c1ccccc1)n1cc(-c2cccc3cn[nH]c23)c(=O)[nH]c1=O (stereo not given)", 2.4],
  ["C#Cc1n[nH]c2c(-c3cn([C@@H](C)c4ccccn4)c(=O)[nH]c3=O)cc(F)cc12", 2.7],
  ["C#Cc1n[nH]c2c(-c3cn(C(C)c4ccccn4)c(=O)[nH]c3=O)cc(F)cc12 (stereo not given)", 2.5],
  ["Cc1n[nH]c2c(-c3cn(C(C)c4ccccc4)c(=O)[nH]c3=O)cccc12 (stereo not given)", 2.7],
  ["C#Cc1n[nH]c2c(-c3cn(C(C)c4ccccc4)c(=O)[nH]c3=O)cc(F)cc12 (stereo not given)", 3.3],
  ["CC(c1ccccc1)n1cc(-c2ccccn2)c(=O)[nH]c1=O (stereo not given)", 2.2],
  ["CC(c1ccc(F)cc1)n1cc(-c2cc(F)cc3c(C#N)n[nH]c23)c(=O)[nH]c1=O (stereo not given)", 3.2]
]}

====

assay_info: Metabolic stability in human hepatocytes assessed as intrinsic clearance measured per million cells at 1 uM measured at 0.5 to 2 hrs by LC-MS/MS analysis
Assay type: ADME, cell-based, Hepatocyte
conditions_used: time 0.5-2 hrs, read-out: CLH
measured_quantity: hepatocyte CLint at 1 µM

{"columns": ["compound", "measured_quantity", "result"],
 "data": [
  ["C#Cc1n[nH]c2c(-c3cn(C(C)c4ccccc4)c(=O)[nH]c3=O)cc(F)cc12 (centres undefined)", "hepatocyte CLint at 1 µM", "4.27 µL/min/1e6 cells"],
  ["C[C@@H](c1ccc(F)cc1)n1cc(-c2cc(F)cc3c(C#N)n[nH]c23)c(=O)[nH]c1=O", "hepatocyte CLint at 1 µM", "2.48 µL/min/1e6 cells"],
  ["C[C@@H](c1ccc(F)cc1)n1cc(-c2cc(F)cc3cn[nH]c23)c(=O)[nH]c1=O", "hepatocyte CLint at 1 µM", "1.81 µL/min/1e6 cells"],
  ["C#Cc1n[nH]c2c(-c3cn(C(C)c4ccccn4)c(=O)[nH]c3=O)cc(F)cc12 (centres undefined)", "hepatocyte CLint at 1 µM", "1.29 µL/min/1e6 cells"]
]}

====

assay_info: Metabolic stability in human liver microsomes assessed as intrinsic clearance at 1 uM preincubated with NADPH for 8 mins followed by compound addition measured at 0.5 to 30 mins by LC-MS/MS analysis
Format: ADME, Microsome
conditions_used: time 0.5-30 min, read-out: CLH
The label is Satisfied for microsomal CLint at 1 µM below 30 µL/min/mg and Not satisfied for microsomal CLint at 1 µM equal to or exceeding 30 µL/min/mg.

{"columns": ["compound", "assigned_class"],
 "data": [
  ["CC(c1cccc(Cl)c1)n1cc(-c2cc(F)cc(F)c2)c(=O)[nH]c1=O (configuration not stated)", "Satisfied"],
  ["CC(c1cccc(-c2cc[nH]n2)c1)n1cc(-c2cc(F)cc(F)c2)c(=O)[nH]c1=O (configuration not stated)", "Satisfied"],
  ["CC(c1cccc(-c2c[nH]cn2)c1)n1cc(-c2cccc3cn[nH]c23)c(=O)[nH]c1=O (configuration not stated)", "Satisfied"],
  ["C#Cc1n[nH]c2c(-c3cn([C@@H](C)c4ccccc4)c(=O)[nH]c3=O)cc(F)cc12", "Satisfied"],
  ["CC(c1ccccc1)n1cc(-c2ncccn2)c(=O)[nH]c1=O (configuration not stated)", "Satisfied"],
  ["CC(c1cccc(-c2cn[nH]c2)c1)n1cc(-c2cc(F)cc(F)c2)c(=O)[nH]c1=O (configuration not stated)", "Satisfied"],
  ["CC(c1ccccc1)n1cc(-c2cc(F)cc3cn[nH]c23)c(=O)[nH]c1=O (configuration not stated)", "Satisfied"],
  ["CC(c1ccccc1)n1cc(-c2cccc3c(C#N)n[nH]c23)c(=O)[nH]c1=O (configuration not stated)", "Not satisfied"],
  ["CC(c1ccccc1)n1cc(-c2ccc3[nH]ccc3c2)c(=O)[nH]c1=O (configuration not stated)", "Satisfied"],
  ["CC(c1ccccn1)n1cc(-c2cc(F)cc3c(C#N)n[nH]c23)c(=O)[nH]c1=O (configuration not stated)", "Satisfied"],
  ["CC(c1ccccc1)n1cc(-c2ccccc2)c(=O)[nH]c1=O (configuration not stated)", "Not satisfied"],
  ["CC(c1ccccc1)n1cc(-c2cc(F)cc3c(C#N)n[nH]c23)c(=O)[nH]c1=O (configuration not stated)", "Satisfied"],
  ["C#Cc1n[nH]c2c(-c3cn([C@@H](C)c4ccccn4)c(=O)[nH]c3=O)cc(F)cc12", "Satisfied"],
  ["CC(c1ccccc1)n1cc(-c2cccc3c(F)n[nH]c23)c(=O)[nH]c1=O (configuration not stated)", "Not satisfied"],
  ["Cc1n[nH]c2c(-c3cn(C(C)c4ccccc4)c(=O)[nH]c3=O)cccc12 (configuration not stated)", "Satisfied"],
  ["CC(c1ccccc1Cl)n1cc(-c2cc(F)cc(F)c2)c(=O)[nH]c1=O (configuration not stated)", "Not satisfied"],
  ["C[C@@H](c1ccccc1)n1cc(-c2cc(F)cc(F)c2)c(=O)[nH]c1=O", "Satisfied"]
]}
